# methodDescription: Parallel artificial membrane permeability assay
# Type: in vitro ADME
# experimentalSetup: PAMPA, pH 7.4, PAMPA, pH 7.4, 200 µM, 2 h; read-out: Papp
Would you mind telling me the reported Papp at 2 h, 200 µM of each entry?
Write the number in ×10⁻⁶ cm/s without appending the unit.

Request: Given the compound CC(=Nc1ccc(F)c(F)c1)c1c(C)cc(=O)n(O)c1O , what is its reported Papp at 2 h, 200 µM?
Result: 2.99

Request: For CC(=Nc1ccccc1F)c1c(C)cc(=O)n(O)c1O then?
Result: 5.72

Request: For CC(=NOCc1ccc(Cl)c(Cl)c1)c1c(C)cc(=O)n(O)c1O then?
Result: 1.59

Request: For CC(=NCCOc1ccc(Cl)cc1)c1c(C)cc(=O)n(O)c1O then?
Result: 0.86

Request: For CC(=Nc1ccccc1Br)c1c(C)cc(=O)n(O)c1O then?
Result: 3.12

Request: For CC(=Nc1cc(F)ccc1F)c1c(C)cc(=O)n(O)c1O then?
Result: 2.4

Request: For CC(=Nc1ccc(F)cc1F)c1c(C)cc(=O)n(O)c1O then?
Result: 3.81

Request: For CC(=NCc1cc(F)cc(F)c1)c1c(C)cc(=O)n(O)c1O then?
Result: 1.53

Request: For CC(=NCc1ccccc1Cl)c1c(C)cc(=O)n(O)c1O then?
Result: 3.04

Request: For CC(=Nc1c(F)cccc1F)c1c(C)cc(=O)n(O)c1O then?
Result: 2.48

Request: For CC(=NCc1ccc(F)c(F)c1)c1c(C)cc(=O)n(O)c1O then?
Result: 2.54

Request: For CC(=NCc1ccccc1Br)c1c(C)cc(=O)n(O)c1O then?
Result: 1.22

Request: For CC(=NCc1cccc(F)c1)c1c(C)cc(=O)n(O)c1O then?
Result: 1.89

----------
# methodDescription: MTS cytotoxicity assay
# Type: cell-based
# experimentalSetup: human, HepDES19 cells, pH 7.4
Would you mind telling me the reported CC50 at 72 h of each entry?
Write the number in µM without appending the unit.

Request: Given the compound CC(=Nc1cc(F)ccc1F)c1c(C)cc(=O)n(O)c1O , what is its reported CC50 at 72 h?
Result: 58.4

Request: For CC(=NOCc1ccc(Cl)c(Cl)c1)c1c(C)cc(=O)n(O)c1O then?
Result: 49.7

Request: For CC(=NOCc1ccccc1I)c1c(C)cc(=O)n(O)c1O then?
Result: 54.1

Request: For CC(=NCc1ccc(F)c(F)c1)c1c(C)cc(=O)n(O)c1O then?
Result: 23.9

Request: For CC(=Nc1ccc(F)c(Cl)c1)c1c(C)cc(=O)n(O)c1O then?
Result: 70.8

Request: For CC(=Nc1ccccc1Br)c1c(C)cc(=O)n(O)c1O then?
Result: 45.8

Request: For CC(=NOCc1ccc(Cl)cc1Cl)c1c(C)cc(=O)n(O)c1O then?
Result: 34.4

Request: For CC(=NCc1ccccc1Br)c1c(C)cc(=O)n(O)c1O then?
Result: 51.3

Request: For CC(=Nc1ccc(F)cc1F)c1c(C)cc(=O)n(O)c1O then?
Result: 54.1

Request: For CC(=NCc1ccc(F)cc1)c1c(C)cc(=O)n(O)c1O then?
Result: 15.4

Request: For CC(=NCc1ccc(Br)cc1)c1c(C)cc(=O)n(O)c1O then?
Result: 44.4

Request: For CC(=NCc1cccc(F)c1)c1c(C)cc(=O)n(O)c1O then?
Result: 19.3

Request: For CC(=Nc1ccc(Cl)c(Cl)c1)c1c(C)cc(=O)n(O)c1O then?
Result: 69

Request: For CC(=NCCOc1ccc(Cl)cc1)c1c(C)cc(=O)n(O)c1O then?
Result: 30.1

Just for reference, paper PMC12564302 is where these values come from.
